subject of test: Microtubule-associated protein tau (Homo sapiens)
method description: Inhibition of aggregation of tau protein (unknown origin) expressed in Escherichia coli BL21 (DE3) assessed as amyloid fibril formation at 10 uM after 24 hrs by thioflavin S fluorescence method
experimental endpoint: inhibition

INSERT INTO results (molecule, subject_of_test, experimental_endpoint, obs_value) VALUES
  ('CC1=CC2Cc3nc4cc(Cl)ccc4c(NCCCCCCNC(=O)c4cc(O)c5c(c4)C(=O)c4cccc(O)c4C5=O)c3C(C1)C2 (racemic)', 'Microtubule-associated protein tau (Homo sapiens)', 'inhibition', '30.9%'),
  ('CC1=C[C@@H]2Cc3nc4cc(Cl)ccc4c(NCCCCCCCCCNC(=O)c4cc(O)c5c(c4)C(=O)c4cccc(O)c4C5=O)c3[C@H](C1)C2', 'Microtubule-associated protein tau (Homo sapiens)', 'inhibition', '34.3%'),
  ('O=C(O)c1cc(O)c2c(c1)C(=O)c1cccc(O)c1C2=O', 'Microtubule-associated protein tau (Homo sapiens)', 'inhibition', '40.8%'),
  ('CC1=CC2Cc3nc4cc(Cl)ccc4c(NCc4ccc(CNC(=O)c5cc(O)c6c(c5)C(=O)c5cccc(O)c5C6=O)cc4)c3C(C1)C2.Cl (racemic)', 'Microtubule-associated protein tau (Homo sapiens)', 'inhibition', '23.1%'),
  ('CC1=CC2Cc3nc4cc(Cl)ccc4c(NCCCCCCCNC(=O)c4cc(O)c5c(c4)C(=O)c4cccc(O)c4C5=O)c3C(C1)C2.Cl (racemic)', 'Microtubule-associated protein tau (Homo sapiens)', 'inhibition', '52%'),
  ('CC1=CC2Cc3nc4cc(Cl)ccc4c(NCCCCCCCCCCNC(=O)c4cc(O)c5c(c4)C(=O)c4cccc(O)c4C5=O)c3C(C1)C2.Cl (racemic)', 'Microtubule-associated protein tau (Homo sapiens)', 'inhibition', '57.1%'),
  ('CC1=CC2Cc3nc4cc(Cl)ccc4c(NCCCCCCCCCCCNC(=O)c4cc(O)c5c(c4)C(=O)c4cccc(O)c4C5=O)c3C(C1)C2.Cl (racemic)', 'Microtubule-associated protein tau (Homo sapiens)', 'inhibition', '46.3%'),
  ('CC1=CC2Cc3nc4cc(Cl)ccc4c(NCCCCCNC(=O)c4cc(O)c5c(c4)C(=O)c4cccc(O)c4C5=O)c3C(C1)C2.Cl (racemic)', 'Microtubule-associated protein tau (Homo sapiens)', 'inhibition', '43.7%'),
  ('CC1=CC2Cc3nc4cc(Cl)ccc4c(NCCCCCCCCCNC(=O)c4cc(O)c5c(c4)C(=O)c4cccc(O)c4C5=O)c3C(C1)C2.Cl (racemic)', 'Microtubule-associated protein tau (Homo sapiens)', 'inhibition', '29.6%'),
  ('CC1=C[C@H]2Cc3nc4cc(Cl)ccc4c(NCCCCCCCCCNC(=O)c4cc(O)c5c(c4)C(=O)c4cccc(O)c4C5=O)c3[C@@H](C1)C2.Cl', 'Microtubule-associated protein tau (Homo sapiens)', 'inhibition', '24.9%'),
  ('CC1=CC2Cc3nc4cc(Cl)ccc4c(NCCCCCCCCNC(=O)c4cc(O)c5c(c4)C(=O)c4cccc(O)c4C5=O)c3C(C1)C2.Cl (racemic)', 'Microtubule-associated protein tau (Homo sapiens)', 'inhibition', '29.2%');
